assay: In vivo pharmacokinetic assay on mouse; details: mouse, plasma, po; ICR mice, ig 10 mg/kg
Value Kind: AUC(0-t)

Quick one: AUC(0-t) of CC#CC(=O)N1[C@@H]2COC[C@@H]2C[C@H]1c1nc(-c2ccc(C(=O)Nc3ccccn3)cc2)c2c(N)nccn12 [Compound I-1] ?
315 ng·h/mL

----------
target: TEC (Homo sapiens, UniProt P42680)
Sequence (P42680 whole entry): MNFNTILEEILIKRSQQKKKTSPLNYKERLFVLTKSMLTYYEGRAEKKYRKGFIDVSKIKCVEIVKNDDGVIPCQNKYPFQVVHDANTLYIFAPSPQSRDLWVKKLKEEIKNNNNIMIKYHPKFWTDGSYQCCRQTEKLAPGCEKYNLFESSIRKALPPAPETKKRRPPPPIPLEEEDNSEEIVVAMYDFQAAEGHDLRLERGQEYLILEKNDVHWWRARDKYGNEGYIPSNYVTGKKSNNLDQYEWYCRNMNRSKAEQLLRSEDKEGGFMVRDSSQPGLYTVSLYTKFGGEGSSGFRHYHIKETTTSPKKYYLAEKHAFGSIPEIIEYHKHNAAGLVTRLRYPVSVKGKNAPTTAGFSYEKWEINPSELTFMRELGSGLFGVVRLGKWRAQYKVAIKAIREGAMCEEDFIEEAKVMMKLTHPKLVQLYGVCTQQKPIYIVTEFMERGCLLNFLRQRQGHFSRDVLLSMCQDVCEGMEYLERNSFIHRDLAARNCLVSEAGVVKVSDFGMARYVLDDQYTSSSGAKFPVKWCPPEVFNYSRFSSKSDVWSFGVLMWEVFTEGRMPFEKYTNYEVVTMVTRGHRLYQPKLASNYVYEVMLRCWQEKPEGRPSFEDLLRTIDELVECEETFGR
Value Kind: IC50 (nM)
# value in nM; strip the unit string

Observed IC50 on TEC (Homo sapiens, UniProt P42680) for CC#CC(=O)N1[C@@H]2COC[C@@H]2C[C@H]1c1nc(-c2ccc(C(=O)Nc3cc(C(F)(F)F)ccn3)cc2F)c2c(N)nccn12 [Compound I-4] , please.
25

Lookup: IC50 / TEC (Homo sapiens, UniProt P42680) / C=CC(=O)N1[C@@H]2COC[C@@H]2C[C@H]1c1nc(-c2ccc(C(=O)Nc3ccccn3)cc2)c2c(N)nccn12 [Compound I-3]
111

Where do these numbers come from? They come from patent US11891405B2.
